biological target: Aβ1-42 (Homo sapiens, UniProt P05067); construct: The β-amyloid peptide Aβ1-42 (Aβ1-42) was synthesised, purified (to a purity greater than 95%); made in house; host or cells: chemical peptide synthesis (no expression host); experiment: Inhibition of the precipitation of Aβ1-42 by the addition of ligand (Micro BCA assay of soluble/aggregated peptide); assay type: biochemical; details: Aβ1-42 5 μM, no metal salt, 1 h 37° C. then 1 h with 200 μM ligand, pH 7.4
Sequence (P05067 672-713): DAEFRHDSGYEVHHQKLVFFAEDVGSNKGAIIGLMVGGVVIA
Quick list: without metal % soluble Aβ per entry.
State the answer as a number, implicitly in %.

Requested field: without metal % soluble Aβ. Item: O=C(c1ccc2cccc(O)c2n1)c1ccc2cccc(O)c2n1 [Compound 6, Bis(8-hydroxy-2-quinoline)methanone]
56

Requested field: without metal % soluble Aβ. Item: `Oc1ccc(Cl)c2ccc(Cc3ccc4c(Cl)ccc(O)c4n3)nc12`
66

Requested field: without metal % soluble Aβ. Item: `Oc1c(I)cc(Cl)c2ccc(CCc3ccc4c(Cl)cc(I)c(O)c4n3)nc12`
36

Requested field: without metal % soluble Aβ. Item: Oc1cccc2cccnc12 [8-hydroxyquinoline, reference compound]
85

Requested field: without metal % soluble Aβ. Item: `Oc1ccc(Cl)c2ccc(CCc3ccc4c(Cl)ccc(O)c4n3)nc12`
59

Requested field: without metal % soluble Aβ. Item: `CC(C)(c1ccc2c(Cl)ccc(O)c2n1)c1ccc2c(Cl)ccc(O)c2n1`
55

Requested field: without metal % soluble Aβ. Item: `c1cnc2c(Nc3cccc4cccnc34)cccc2c1`
69

Requested field: without metal % soluble Aβ. Item: `Oc1cccc2ccc(CC(Cc3ccc4cccc(O)c4n3)c3ccc4cccc(O)c4n3)nc12`
48
